test: Metabolic stability in human liver microsomes; format: in vitro ADME; conditions: human, pH 7.4
Item-by-item account of half-life at 1 µM
REPORTED METRIC: half-life at 1 µM (min)

MOLECULE	REPORTED METRIC	UNIT LABEL	NUMERIC RESULT
CN1CCN(c2ccc(OC(F)(F)F)c(Nc3ncc4ccc5c(C(N)=O)nn(CCF)c5c4n3)c2)CC1	half-life at 1 µM	min	15.9
CN1CCN(c2ccc(OC(F)(F)F)c(Nc3ncc4c(n3)-c3c(c(C(=O)NNC(N)=O)nn3C)CC4)c2)CC1	half-life at 1 µM	min	119
Cn1nc(C(N)=O)c2c1-c1nc(Nc3cc(N4CCN(CCO)CC4)ccc3OC(F)(F)F)ncc1CC2	half-life at 1 µM	min	31.9
CN1CCN(c2ccc(OC(F)(F)F)c(Nc3ncc4ccc5c(C(N)=O)nn(C)c5c4n3)c2)CC1	half-life at 1 µM	min	15.9
CCc1sc(C(N)=O)c2c1-c1nc(Nc3cc(N4CCN(C)CC4)ccc3OC(F)(F)F)ncc1CC2	half-life at 1 µM	min	20.6
CN1CCN(c2ccc(OC(F)(F)F)c(Nc3ncc4c(n3)-c3c(c(C(N)=O)nn3CCO)CC4)c2)CC1 [Onvansertib, reference compound]	half-life at 1 µM	min	81.5
CN1CCN(c2ccc(OC(F)(F)F)c(Nc3ncc4c(n3)-c3c(c(C(N)=O)nn3CCC#N)CC4)c2)CC1	half-life at 1 µM	min	28.3
CN1CCN(c2ccc(OC(F)(F)F)c(Nc3ncc4c(n3)-c3c(c(C(=O)NO)nn3CCF)CC4)c2)CC1	half-life at 1 µM	min	29.9
CN1CCN(c2ccc(OC(F)(F)F)c(Nc3ncc4c(n3)-c3c(c(C(N)=O)cn3CCO)CC4)c2)CC1	half-life at 1 µM	min	55
CN1CCN(c2ccc(OCC(F)(F)F)c(Nc3ncc4c(n3)-c3c(c(C(N)=O)nn3CCO)CC4)c2)CC1	half-life at 1 µM	min	43.6
CN1CCN(c2ccc(OC(F)(F)F)c(Nc3ncc4c(n3)-c3c(c(C(=O)NN)nn3CCO)CC4)c2)CC1	half-life at 1 µM	min	71.4
Cn1nc(C(N)=O)c2ccc3cnc(Nc4cc(N5CCN(CCO)CC5)ccc4OC(F)(F)F)nc3c21	half-life at 1 µM	min	28.3
